Data provenance is patent US20110262922.

system-name: ERBB2 (HER2) (UniProt P04626 P04626:23-652)
protocol-text: filter; +/-1.25; same buffer, 37 C
conditions-used: tags: His-tagged; R&D Systems Cat# 1129-ER; label: 5'-32P
value-type: Kd

                                     binder  value_type  measurement
0  ERBB2-19 (ssDNA) DNA: GAGTGACCGTCTGCCTGATTAGATGAAAGCGCATTCCAACAACAGATAATCTGAGGGCAGCCACACCACCAGCC          Kd      15.8 nM
